target: glucocorticoid receptor (Homo sapiens); assay: GRE reporter gene test (Experiment Example 1), HEK293T cells transfected with pGL4.35 and p-Bind GR Vector; type: cell-based; settings: GRE reporter gene, HEK293T cells, 18-20 h incubation
Sequence (P04150 524-777 limits assumed): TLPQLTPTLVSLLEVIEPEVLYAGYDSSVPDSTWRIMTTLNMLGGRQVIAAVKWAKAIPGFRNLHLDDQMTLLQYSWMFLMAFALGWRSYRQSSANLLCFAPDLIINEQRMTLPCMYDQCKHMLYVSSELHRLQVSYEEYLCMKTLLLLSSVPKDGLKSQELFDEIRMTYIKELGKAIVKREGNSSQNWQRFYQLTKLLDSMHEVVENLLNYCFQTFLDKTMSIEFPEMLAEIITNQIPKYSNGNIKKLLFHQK
# reported EC50; entries follow
measured.quantity: EC50 (nM)

compound.structure | measured
C[C@@H]1C[C@H]2[C@@H]3C[C@H](F)C4=CC(=O)C=C[C@]4(C)[C@@]3(F)[C@@H](O)C[C@]2(C)[C@@]1(OC(=O)c1ccc(F)cc1)C(=O)SCF | 0.16
C[C@@H]1C[C@H]2[C@@H]3C[C@H](F)C4=CC(=O)C=C[C@]4(C)[C@@]3(F)[C@@H](O)C[C@]2(C)[C@@]1(OC(=O)c1ccc(F)c(N)c1)C(=O)OCF | 0.2
C[C@@H]1C[C@H]2[C@@H]3C[C@H](F)C4=CC(=O)C=C[C@]4(C)[C@@]3(F)[C@@H](O)C[C@]2(C)[C@@]1(OC(=O)c1cccc(O)c1)C(=O)SCF | 0.19
C[C@@H]1C[C@H]2[C@@H]3C[C@H](F)C4=CC(=O)C=C[C@]4(C)[C@@]3(F)[C@@H](O)C[C@]2(C)[C@@]1(OC(=O)c1ccc(O)cc1)C(=O)SCF | 0.27
C[C@@H]1C[C@H]2[C@@H]3C[C@H](F)C4=CC(=O)C=C[C@]4(C)[C@@]3(F)[C@@H](O)C[C@]2(C)[C@@]1(OC(=O)/C=C/c1ccc(F)c(N)c1)C(=O)SCF | 1.2
C[C@]12C=CC(=O)C=C1[C@@H](F)C[C@H]1[C@@H]3CC[C@](OC(=O)c4ccc(F)c(N)c4)(C(=O)SCF)[C@@]3(C)C[C@H](O)[C@@]12F | 0.2
C[C@@H]1C[C@H]2[C@@H]3C[C@H](F)C4=CC(=O)C=C[C@]4(C)[C@@]3(F)[C@@H](O)C[C@]2(C)[C@@]1(OC(=O)c1ccnc(N)c1)C(=O)SCF | 1.4

----------
Molecular target: glucocorticoid receptor (Homo sapiens, UniProt P04150)
Experiment: In vitro activation activity of the glucocorticoid on the glucocorticoid receptor in Hela-MMTV luciferase reporter cells
Type: cell-based
Settings: Hela-MMTV luciferase reporter cells, 48 hours
Description: The activation activity of the glucocorticoid on glucocorticoid receptor was tested in the constructed Hela-MMTV luciferase reporter system cells. Adherent Hela-MMTV cells were digested using a Trypsin-EDTA (0.25%) solution, counted, and the cells in a required number were resuspended in complete medium (1640+10% FBS). The cells were then plated in a 96-well cell culture plate at 10,000 cells/100 μl. […]
Sequence (P04150 whole entry): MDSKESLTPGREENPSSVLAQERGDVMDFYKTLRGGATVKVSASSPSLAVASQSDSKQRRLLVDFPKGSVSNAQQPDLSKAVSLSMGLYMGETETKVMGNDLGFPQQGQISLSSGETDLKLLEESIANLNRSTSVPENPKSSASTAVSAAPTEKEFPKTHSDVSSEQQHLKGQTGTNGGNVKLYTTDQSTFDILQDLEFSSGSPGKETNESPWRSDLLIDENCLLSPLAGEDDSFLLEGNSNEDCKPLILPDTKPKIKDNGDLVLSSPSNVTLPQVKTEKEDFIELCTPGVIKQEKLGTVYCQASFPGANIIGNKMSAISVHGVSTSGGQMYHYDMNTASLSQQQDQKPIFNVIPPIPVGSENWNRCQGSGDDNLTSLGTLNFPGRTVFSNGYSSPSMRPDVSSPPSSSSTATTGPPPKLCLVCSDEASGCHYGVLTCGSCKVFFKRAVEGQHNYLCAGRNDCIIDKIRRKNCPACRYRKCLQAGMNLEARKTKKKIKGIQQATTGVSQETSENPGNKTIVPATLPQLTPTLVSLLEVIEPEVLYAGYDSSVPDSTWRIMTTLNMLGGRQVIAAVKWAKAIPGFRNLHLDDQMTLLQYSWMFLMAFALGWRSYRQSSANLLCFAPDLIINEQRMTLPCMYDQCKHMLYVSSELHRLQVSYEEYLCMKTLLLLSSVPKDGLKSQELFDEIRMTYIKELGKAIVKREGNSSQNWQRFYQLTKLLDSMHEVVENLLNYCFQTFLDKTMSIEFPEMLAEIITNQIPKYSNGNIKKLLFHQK
pEC50: −log10 of the molar value.

molecule | pEC50
C[C@@H]1C[C@H]2[C@@H]3C[C@H](F)C4=CC(=O)C=C[C@]4(C)[C@@]3(F)[C@@H](O)C[C@]2(C)[C@@]1(OC(=O)CCO)C(=O)SCF | 9.81
C[C@]12C=CC(=O)C=C1[C@@H](F)C[C@H]1[C@@H]3CC[C@](OC(=O)c4ccc(F)c(N)c4)(C(=O)SCF)[C@@]3(C)C[C@H](O)[C@@]12F | 11.01
C[C@H](O)CC(=O)O[C@]1(C(=O)SCF)[C@H](C)C[C@H]2[C@@H]3C[C@H](F)C4=CC(=O)C=C[C@]4(C)[C@@]3(F)[C@@H](O)C[C@@]21C | 10.13
C[C@H]1C[C@@]2(C)[C@@H](C[C@H]3O[C@@H](c4ccc(Cc5cccc(N)c5)cc4)O[C@]32C(=O)CO)[C@@H]2CCC3=CC(=O)C=C[C@]3(C)[C@H]21 [comparative compound 1, reference compound] | 9.02
